# system-under-test: T1, CTNI quality control recombinant protein (PK2-CTNI-1, 170120, produced by the applicant) (human, UniProt P19429 2-210, limits assumed)
# T1 construct: also called cardiac troponin I
# T1 sequence (P19429 2-210 limits assumed): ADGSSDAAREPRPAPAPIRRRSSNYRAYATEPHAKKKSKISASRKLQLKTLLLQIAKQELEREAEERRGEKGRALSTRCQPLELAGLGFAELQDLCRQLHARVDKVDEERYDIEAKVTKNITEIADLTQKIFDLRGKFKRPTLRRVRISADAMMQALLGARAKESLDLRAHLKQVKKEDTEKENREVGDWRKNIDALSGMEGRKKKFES
# procedure-details: AMC sensor kinetics, antibody captured, cTnI analyte
property-measured: koff

Mutation 1-28 (antibody, V domains shown, built as for Mutation 1) VH: EVQLQQSGAELVKPGASVKLSCTASGFNLKDYFMHWMKQRTEQGLDWIGRIDPEDAETKYAPEFQGKATITADTSSNTAYLQLSTLTSEDTAVYYCARYYSSYLPFVYWGQGTLVTASA VL: DVVMTQTPLSLSVSLGDQASISCRSSQSLIYSNRHTYLHWYLQKPGQSPKLLIFQLSNRFSGVPDRFSGSGSGTDFTLKINRVEAEDLGVYFCSQSTHLPFTFGSGTKLEIKR : 0.000101 s⁻¹
Mutation 1-34 (antibody, V domains shown, built as for Mutation 1) VH: EVQLQQSGAELVKPGASVKLSCTASGFNIKDYFMHWMKQRTEQGLDWIGRIDPEDGETKYAPEFQGKATITADTSSNTAYLQLSTLTSEDTAVYYCARYYSSYIPFVYWGQGTLVTASA VL: DVVMTQTPLSLSVSLGDQASISCRSSQSLLYSNRHTYLHWYLQKPGQSPKLLIFQISNRFSGVPDRFSGSGSGTDFTLKINRVEAEDLGVYFCSQSTHIPYTFGSGTKLEIKR : 0.000598 s⁻¹

Would you kindly share the measured koff for Mutation 1-32 (antibody, V domains shown, built as for Mutation 1) VH: EVQLQQSGAELVKPGASVKLSCTASGFNLKDYFMHWMKQRTEQGLDWIGRIDPEDGETRYAPEFQGKATITADTSSNTAYLQLSTLTSEDTAVYYCARYYSSYIPFVYWGQGTLVTASA VL: DVVMTQTPLSLSVSLGDQASISCRSSQSILYSNRHTYLHWYLQKPGQSPKLLIFQISNRFSGVPDRFSGSGSGTDFTLKINRVEAEDLGVYFCSQSTHLPFTFGSGTKLEIKR ?
8.4e-05 s⁻¹
